# method.summary: Apparent permeability across basolateral to apical side in human Caco-2 cells
# Assay type: ADME, cell-based
readout.label: Papp B→A (×10⁻⁶ cm/s)
Write the value in ×10⁻⁶ cm/s as a bare number.

Data request: Item "O=C(Nc1ccc(OC(F)(F)F)cc1)c1cncc(-c2cccnc2)c1" has what recorded Papp B→A?
Data returned: 11.1

----------
# assay.target: Tyrosine-protein kinase ABL1 (Homo sapiens)
# Sequence (P00519 whole entry): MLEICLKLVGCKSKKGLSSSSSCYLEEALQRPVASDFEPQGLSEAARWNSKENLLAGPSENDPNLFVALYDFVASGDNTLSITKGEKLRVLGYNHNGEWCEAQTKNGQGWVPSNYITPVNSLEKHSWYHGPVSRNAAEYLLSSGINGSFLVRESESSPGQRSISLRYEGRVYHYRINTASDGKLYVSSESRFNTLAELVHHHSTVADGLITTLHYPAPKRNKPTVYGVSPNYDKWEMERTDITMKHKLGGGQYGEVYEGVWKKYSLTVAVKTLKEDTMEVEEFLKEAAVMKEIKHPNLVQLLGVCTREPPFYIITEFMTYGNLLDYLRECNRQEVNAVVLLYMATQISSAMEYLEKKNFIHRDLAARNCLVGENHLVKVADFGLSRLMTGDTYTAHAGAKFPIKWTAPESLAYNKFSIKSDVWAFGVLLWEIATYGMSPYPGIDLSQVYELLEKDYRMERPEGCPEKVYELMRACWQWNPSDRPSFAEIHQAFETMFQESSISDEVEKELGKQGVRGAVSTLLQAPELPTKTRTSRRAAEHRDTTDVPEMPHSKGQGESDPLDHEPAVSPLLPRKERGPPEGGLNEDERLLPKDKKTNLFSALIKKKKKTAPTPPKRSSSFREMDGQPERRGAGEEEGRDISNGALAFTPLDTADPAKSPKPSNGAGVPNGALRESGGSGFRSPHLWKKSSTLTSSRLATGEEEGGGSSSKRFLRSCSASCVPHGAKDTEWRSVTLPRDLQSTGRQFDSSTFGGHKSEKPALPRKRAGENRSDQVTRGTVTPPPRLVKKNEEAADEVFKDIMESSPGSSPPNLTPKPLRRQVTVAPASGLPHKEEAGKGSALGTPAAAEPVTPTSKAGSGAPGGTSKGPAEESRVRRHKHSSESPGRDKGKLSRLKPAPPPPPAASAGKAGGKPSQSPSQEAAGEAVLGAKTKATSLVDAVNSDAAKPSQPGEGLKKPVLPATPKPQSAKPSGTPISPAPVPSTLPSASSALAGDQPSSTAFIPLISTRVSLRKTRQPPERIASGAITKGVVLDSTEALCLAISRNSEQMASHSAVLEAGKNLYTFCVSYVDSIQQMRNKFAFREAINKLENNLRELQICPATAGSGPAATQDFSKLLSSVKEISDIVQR
readout.label: pIC50
Remember, pIC50 is on a log scale: it is -log10 of the molar concentration.

Data request: May I ask what pIC50 has been recorded for "O=C(Nc1ccc(OC(F)(F)F)cc1)c1cncc(-c2cccnc2)c1" ?
Data returned: 7.48

----------
# method.summary: Half life in C57BL/6 mouse at 1 mg/kg, iv
# Type: ADME, organism-based
# measurement.context: in vivo
readout.label: half-life (min)
Response body: numeric value in min, unit text excluded.

Data request: Tell me the measured half-life of "O=C(Nc1ccc(OC(F)(F)F)cc1)c1cncc(-c2cccnc2)c1" , please.
Data returned: 54

----------
# method.summary: Drug level in C57BL/6 mouse brain at 30 mg/kg, ip measured at 4 hrs
# Format: ADME, organism-based
# measurement.context: read-out: Drug uptake
readout.label: concentration at 4 h (µM)
Answer with a number only, understood to be in µM.

Data request: Quick check: concentration at 4 h of "O=C(Nc1ccc(OC(F)(F)F)cc1)c1cncc(-c2cccnc2)c1" ?
Data returned: 34.9

----------
# method.summary: Tmax in C57BL/6 mouse at 30 mg/kg, ip
# Type: ADME, organism-based
# measurement.context: in vivo
readout.label: Tmax (h)
Unit h implied. Number only.

Data request: Returns the measured Tmax for the input compound. Input: "O=C(Nc1ccc(OC(F)(F)F)cc1)c1cncc(-c2cccnc2)c1"
Data returned: 1.8

----------
# System: MDR1
# method.summary: Efflux ratio of apparent permeability across basolateral to apical side over apical to basolateral side in MDCK-MDR1 cells
# Assay type: ADME, cell-based, Canis lupus familiaris
# measurement.context: dog
readout.label: efflux ratio
Respond with the number and no other words.

Data request: Form field - read-out: efflux ratio; system: MDR1; submitted item: "O=C(Nc1ccc(OC(F)(F)F)cc1)c1cncc(-c2cccnc2)c1"
Data returned: 1.03

----------
# method.summary: Apparent permeability across apical to basolateral side in human Caco-2 cells
# Assay type: ADME, cell-based
readout.label: Papp A→B (×10⁻⁶ cm/s)
Just the number in ×10⁻⁶ cm/s, nothing appended.

Data request: # get_value(readout='Papp A→B', item= "O=C(Nc1ccc(OC(F)(F)F)cc1)c1cncc(-c2cccnc2)c1" )
Data returned: 27.1

----------
# method.summary: Clearance in C57BL/6 mouse at 1 mg/kg, iv
# Format: ADME, organism-based
# measurement.context: in vivo
readout.label: clearance (L/h/kg)
Dear colleague, please return just the value in L/h/kg, with no unit written.

Data request: Sample "O=C(Nc1ccc(OC(F)(F)F)cc1)c1cncc(-c2cccnc2)c1" — what was its clearance?
Data returned: 1.02

----------
# assay.target: hERG (KCNH2) (Homo sapiens, UniProt Q12809)
# Sequence (Q12809 whole entry): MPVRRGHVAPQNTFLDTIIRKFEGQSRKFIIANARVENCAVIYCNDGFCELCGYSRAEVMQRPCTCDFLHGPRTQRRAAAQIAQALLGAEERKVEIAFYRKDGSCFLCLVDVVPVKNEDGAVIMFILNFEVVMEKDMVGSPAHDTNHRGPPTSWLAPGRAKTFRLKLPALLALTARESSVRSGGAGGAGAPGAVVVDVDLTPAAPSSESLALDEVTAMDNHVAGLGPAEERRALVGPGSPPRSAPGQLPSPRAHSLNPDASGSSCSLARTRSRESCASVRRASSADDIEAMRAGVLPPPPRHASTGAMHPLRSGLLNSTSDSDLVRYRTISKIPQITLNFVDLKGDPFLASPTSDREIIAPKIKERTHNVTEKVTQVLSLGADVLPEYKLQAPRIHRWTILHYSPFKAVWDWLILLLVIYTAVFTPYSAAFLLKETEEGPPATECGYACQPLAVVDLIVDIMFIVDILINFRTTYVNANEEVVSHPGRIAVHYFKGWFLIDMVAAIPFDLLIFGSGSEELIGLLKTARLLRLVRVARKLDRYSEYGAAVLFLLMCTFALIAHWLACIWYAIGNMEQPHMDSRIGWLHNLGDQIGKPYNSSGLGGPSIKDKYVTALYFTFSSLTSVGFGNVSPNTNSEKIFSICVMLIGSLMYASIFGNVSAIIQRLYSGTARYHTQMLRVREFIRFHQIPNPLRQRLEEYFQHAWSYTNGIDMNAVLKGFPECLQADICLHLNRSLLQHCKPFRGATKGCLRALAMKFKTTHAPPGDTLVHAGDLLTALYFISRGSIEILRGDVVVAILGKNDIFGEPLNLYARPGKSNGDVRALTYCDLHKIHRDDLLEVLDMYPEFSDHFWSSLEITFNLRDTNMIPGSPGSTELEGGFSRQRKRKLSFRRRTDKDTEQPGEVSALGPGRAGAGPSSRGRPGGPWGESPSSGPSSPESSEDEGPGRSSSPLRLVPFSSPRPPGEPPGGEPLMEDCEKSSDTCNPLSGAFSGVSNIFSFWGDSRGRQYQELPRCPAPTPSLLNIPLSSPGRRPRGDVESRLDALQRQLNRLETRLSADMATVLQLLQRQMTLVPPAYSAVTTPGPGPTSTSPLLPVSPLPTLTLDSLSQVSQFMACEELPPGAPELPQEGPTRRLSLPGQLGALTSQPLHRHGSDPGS
# method.summary: Displacement of [3H]dofetilide from human ERG expressed in HEK293 cells at 30 uM measured after 45 mins by topcount scintillation counting method relative to control
# Assay type: toxicity, cell-based
# measurement.context: HEK293 cells that express hERG, probe [3H]dofetilide
readout.label: inhibition at 0.75 h, 30 µM

Data request: Requested read-out inhibition at 0.75 h, 30 µM, target or system hERG (KCNH2) (Homo sapiens, UniProt Q12809), entry "O=C(Nc1ccc(OC(F)(F)F)cc1)c1cncc(-c2cccnc2)c1"
Data returned: > 50%
